REPORTED_CONDITIONS: in isopropanol, 283.15 K
MEASURED_METRIC: solubility (mole fraction)
A bare number is all that is needed in reply.

The molecule CC(C)C(=O)OCC(=O)[C@@]12O[C@H](C3CCCCC3)O[C@@H]1C[C@H]1[C@@H]3CCC4=CC(=O)C=C[C@]4(C)[C@H]3[C@@H](O)C[C@@]12C showed solubility (mole fraction) equal to 0.0111

====

REPORTED_CONDITIONS: in toluene, 305.65 K
MEASURED_METRIC: solubility (mole fraction)
A bare number is all that is needed in reply.

The molecule CC(C)C(=O)OCC(=O)[C@@]12O[C@H](C3CCCCC3)O[C@@H]1C[C@H]1[C@@H]3CCC4=CC(=O)C=C[C@]4(C)[C@H]3[C@@H](O)C[C@@]12C showed solubility (mole fraction) equal to 0.0616

====

REPORTED_CONDITIONS: in n-butanol, 303.15 K
MEASURED_METRIC: solubility (mole fraction)

The compound CC(C)C(=O)OCC(=O)[C@@]12O[C@H](C3CCCCC3)O[C@@H]1C[C@H]1[C@@H]3CCC4=CC(=O)C=C[C@]4(C)[C@H]3[C@@H](O)C[C@@]12C showed solubility (mole fraction) equal to 0.105

====

REPORTED_CONDITIONS: in toluene, 313.15 K
MEASURED_METRIC: solubility (mole fraction)
A bare number is all that is needed in reply.

The compound CC(C)C(=O)OCC(=O)[C@@]12O[C@H](C3CCCCC3)O[C@@H]1C[C@H]1[C@@H]3CCC4=CC(=O)C=C[C@]4(C)[C@H]3[C@@H](O)C[C@@]12C showed solubility (mole fraction) equal to 0.0735

====

REPORTED_CONDITIONS: in n-butanol, 295.65 K
MEASURED_METRIC: solubility (mole fraction)
A bare number is all that is needed in reply.

The molecule CC(C)C(=O)OCC(=O)[C@@]12O[C@H](C3CCCCC3)O[C@@H]1C[C@H]1[C@@H]3CCC4=CC(=O)C=C[C@]4(C)[C@H]3[C@@H](O)C[C@@]12C showed solubility (mole fraction) equal to 0.0898

====

REPORTED_CONDITIONS: in n-propanol, 308.15 K
MEASURED_METRIC: solubility (mole fraction)
A bare number is all that is needed in reply.

The compound CC(C)C(=O)OCC(=O)[C@@]12O[C@H](C3CCCCC3)O[C@@H]1C[C@H]1[C@@H]3CCC4=CC(=O)C=C[C@]4(C)[C@H]3[C@@H](O)C[C@@]12C showed solubility (mole fraction) equal to 0.0728

====

REPORTED_CONDITIONS: in isopropanol, 305.65 K
MEASURED_METRIC: solubility (mole fraction)
A bare number is all that is needed in reply.

The compound CC(C)C(=O)OCC(=O)[C@@]12O[C@H](C3CCCCC3)O[C@@H]1C[C@H]1[C@@H]3CCC4=CC(=O)C=C[C@]4(C)[C@H]3[C@@H](O)C[C@@]12C showed solubility (mole fraction) equal to 0.0411

====

REPORTED_CONDITIONS: in ethyl acetate, 283.15 K
MEASURED_METRIC: solubility (mole fraction)
A bare number is all that is needed in reply.

The compound CC(C)C(=O)OCC(=O)[C@@]12O[C@H](C3CCCCC3)O[C@@H]1C[C@H]1[C@@H]3CCC4=CC(=O)C=C[C@]4(C)[C@H]3[C@@H](O)C[C@@]12C showed solubility (mole fraction) equal to 0.0604

FYI, the data here is from BigSolDB 2.1.
